meta.source: patent US9403774B2

Where a name gives a salt, the structure may show the parent alone.
Heads up, these compounds all have Ki values measured for UniProt P03951.
Sequence (P03951 388-625): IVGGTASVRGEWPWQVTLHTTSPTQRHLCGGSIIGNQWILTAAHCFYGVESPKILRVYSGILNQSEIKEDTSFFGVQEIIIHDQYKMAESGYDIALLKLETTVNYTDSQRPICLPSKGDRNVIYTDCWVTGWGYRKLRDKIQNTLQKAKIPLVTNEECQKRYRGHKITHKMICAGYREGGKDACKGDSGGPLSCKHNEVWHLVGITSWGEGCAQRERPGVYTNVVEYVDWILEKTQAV
Sequence (P03951 19-387 partner): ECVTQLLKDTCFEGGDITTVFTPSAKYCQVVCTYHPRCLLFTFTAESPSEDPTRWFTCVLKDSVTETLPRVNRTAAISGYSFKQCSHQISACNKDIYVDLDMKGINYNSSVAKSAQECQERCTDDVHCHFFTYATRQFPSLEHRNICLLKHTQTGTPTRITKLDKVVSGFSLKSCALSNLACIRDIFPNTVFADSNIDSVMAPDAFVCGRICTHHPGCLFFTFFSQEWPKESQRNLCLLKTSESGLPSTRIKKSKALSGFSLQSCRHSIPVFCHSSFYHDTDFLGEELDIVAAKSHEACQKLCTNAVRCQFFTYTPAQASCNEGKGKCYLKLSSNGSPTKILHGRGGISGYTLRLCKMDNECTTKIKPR

Observe how each entry below is paired with its result.
COMPOUND	TARGET DESC	Ki
CNC(=O)c1ccc(-c2cccc3c2CCN(C(=O)[C@H]2CC[C@H](CN)CC2)C3C(=O)Nc2ccc(C(=O)O)cc2)cc1 (some centres unmarked) [Example 4, TFA Salt]	UniProt P03951	< 5 nM
COC1CCN(c2cccc3c2CCN(C(=O)c2ccc(N)cc2)C3C(=O)Nc2ccc(C(=O)O)cc2)CC1 (centres unmarked) [Example 1, bis-TFA salt]	UniProt P03951	542 nM
NC[C@H]1CC[C@H](C(=O)N2CCc3ccccc3[C@H]2C(=O)Nc2ccc(C(=O)O)cc2)CC1 [Example 32, TFA salt]	UniProt P03951	84.6 nM
CC1(C)Cc2c(-c3ccc4c(c3)OCO4)cccc2C(C(=O)Nc2ccc(C(=O)O)cc2)N1C(=O)[C@H]1CC[C@H](CN)CC1 (some centres unmarked)	UniProt P03951	166 nM

Consider the record given below.
Field: Ki (UniProt P03951). Entry: CC1(C)Cc2c(-c3cc4ccccc4s3)cccc2C(C(=O)Nc2ccc(C(=O)O)cc2)N1C(=O)[C@H]1CC[C@H](CN)CC1 (some centres unmarked)
782 nM
